target: Spermidine synthase (Rattus norvegicus); assay: Inhibition of spermidine synthase at 100 uM concentration of the compound; values are per cent of control
measure.name: residual activity (%)

1. CCCCCC(CC)SC[C@H]1OC(n2cnc3c(N)ncnc32)[C@H](O)[C@@H]1O (some centres undefined) = 104
2. NCCCCCC(CCN)SC[C@H]1O[C@@H](n2cnc3c(N)ncnc32)[C@H](O)[C@@H]1O (some centres undefined) = 1

P: CCCCCC(CC)[S+](C)C[C@H]1O[C@H](n2cnc3c(N)ncnc32)[C@H](O)[C@@H]1O (some centres undefined)
Q: C[S+](C[C@H]1O[C@H](n2cnc3c(N)ncnc32)[C@H](O)[C@@H]1O)C(CCN)CCCCCN (some centres undefined)
Exercise: Lab note: check whether P or Q has the lower measured residual activity. Answer by stating the label of the chosen item.
Key: Q
